Each recorded value in this set is attributed to ChEMBL document CHEMBL3585298.

# target-of-assay: Epidermal growth factor receptor (Homo sapiens)
# Sequence (P00533 whole entry): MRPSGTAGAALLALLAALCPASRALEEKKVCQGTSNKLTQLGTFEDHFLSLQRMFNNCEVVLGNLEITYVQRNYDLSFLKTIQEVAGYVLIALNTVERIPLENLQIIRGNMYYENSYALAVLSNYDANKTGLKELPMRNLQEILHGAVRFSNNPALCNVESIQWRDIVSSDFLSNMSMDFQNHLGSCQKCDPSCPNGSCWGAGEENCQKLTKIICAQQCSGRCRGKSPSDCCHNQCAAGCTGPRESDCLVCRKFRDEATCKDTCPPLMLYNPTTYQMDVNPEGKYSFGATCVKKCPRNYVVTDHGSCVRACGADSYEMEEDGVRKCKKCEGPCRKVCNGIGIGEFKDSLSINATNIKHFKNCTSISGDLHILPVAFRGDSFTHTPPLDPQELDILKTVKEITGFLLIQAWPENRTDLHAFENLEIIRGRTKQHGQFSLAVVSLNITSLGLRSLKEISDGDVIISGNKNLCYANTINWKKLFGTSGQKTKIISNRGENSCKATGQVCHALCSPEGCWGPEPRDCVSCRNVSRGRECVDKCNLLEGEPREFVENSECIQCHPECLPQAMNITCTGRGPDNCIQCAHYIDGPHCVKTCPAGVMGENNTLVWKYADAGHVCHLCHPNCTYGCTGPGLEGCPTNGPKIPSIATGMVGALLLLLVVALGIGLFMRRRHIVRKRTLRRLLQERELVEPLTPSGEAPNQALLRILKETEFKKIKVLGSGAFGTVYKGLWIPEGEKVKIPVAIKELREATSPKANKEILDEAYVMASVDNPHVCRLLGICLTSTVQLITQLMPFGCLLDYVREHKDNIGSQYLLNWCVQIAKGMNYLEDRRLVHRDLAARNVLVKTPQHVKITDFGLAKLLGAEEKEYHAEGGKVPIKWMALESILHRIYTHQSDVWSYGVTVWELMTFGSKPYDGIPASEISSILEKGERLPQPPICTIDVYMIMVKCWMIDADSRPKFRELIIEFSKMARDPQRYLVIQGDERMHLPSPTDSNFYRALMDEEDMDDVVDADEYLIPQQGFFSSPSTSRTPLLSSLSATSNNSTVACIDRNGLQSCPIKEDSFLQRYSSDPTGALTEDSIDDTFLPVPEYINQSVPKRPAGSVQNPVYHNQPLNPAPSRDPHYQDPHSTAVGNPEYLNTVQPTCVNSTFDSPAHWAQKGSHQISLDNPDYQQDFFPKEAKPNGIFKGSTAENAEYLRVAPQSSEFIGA
# assay-comment: Inhibition of recombinant EGFR (unknown origin) assessed as inhibition of autophosphorylation after 1 hr by DELFIA/Time-resolved fluorometry
Below, each entry is listed with its recorded IC50.
// note: answer is a bare numeric in µM

Known IC50 results, listed for orientation:
O=C1N=C(N2CCC[C@H]2C(=O)Nc2ccc3ncnc(Nc4cccc(Cl)c4)c3c2)S/C1=C/c1ccc(Cl)cc1 : 7.6
O=C1N=C(N2CCC[C@H]2C(=O)Nc2ccc3ncnc(Nc4cccc(Cl)c4)c3c2)S/C1=C/c1ccc(-c2ccccc2)cc1 : 13.2
O=C1N=C(N2CCC[C@H]2C(=O)Nc2ccc3ncnc(Nc4cccc(Cl)c4)c3c2)S/C1=C/c1cccs1 : 8.1

Pending molecule:
Field IC50 (entry "O=C1N=C(N2CCC[C@H]2C(=O)Nc2ccc3ncnc(Nc4cccc(Cl)c4)c3c2)S/C1=C/c1cccnc1" ) reads 9.8

###

# target-of-assay: Epidermal growth factor receptor (Homo sapiens)
# assay-comment: Inhibition of recombinant EGFR (unknown origin) assessed as inhibition of autophosphorylation after 1 hr by DELFIA/Time-resolved fluorometry
Below, each entry is listed with its recorded pIC50.
pIC50 here: minus log base 10 of the concentration, concentration in moles per litre.

Known pIC50 results, listed for orientation:
O=C1N=C(N2CCC[C@H]2C(=O)Nc2ccc3ncnc(Nc4cccc(Cl)c4)c3c2)S/C1=C/c1cccc(Br)n1 : 5.51
O=C1N=C(N2CCC[C@H]2C(=O)Nc2ccc3ncnc(Nc4cccc(Cl)c4)c3c2)S/C1=C/c1cccnc1Cl : 5.13
O=C1N=C(N2CCC[C@H]2C(=O)Nc2ccc3ncnc(Nc4cccc(Cl)c4)c3c2)S/C1=C/c1ccc(Br)s1 : 4.50

Field pIC50 (entry "Cc1cccc(/C=C2/SC(N3CCC[C@H]3C(=O)Nc3ccc4ncnc(Nc5cccc(Cl)c5)c4c3)=NC2=O)n1" ) reads 5.19

###

# Test system: HepG2
# assay-comment: Antiproliferative activity against human HepG2 cells assessed as cell growth by MTT assay
# Assay type: functional, cell-based
recorded-metric: pIC50
pIC50 here: minus log base 10 of the concentration, concentration in moles per litre.

Known pIC50 results, listed for orientation:
O=C1N=C(N2CCC[C@H]2C(=O)Nc2ccc3ncnc(Nc4cccc(Cl)c4)c3c2)S/C1=C/c1ccc2ccccc2n1 : 4.64
O=C1N=C(N2CCC[C@H]2C(=O)Nc2ccc3ncnc(Nc4cccc(Cl)c4)c3c2)S/C1=C/c1ccc(-c2ccccc2)cc1 : 4.81
O=C1N=C(N2CCC[C@H]2C(=O)Nc2ccc3ncnc(Nc4cccc(Cl)c4)c3c2)S/C1=C/c1cccnc1 : 5.07
O=C1N=C(N2CCC[C@H]2C(=O)Nc2ccc3ncnc(Nc4cccc(Cl)c4)c3c2)S/C1=C/c1cccc(Cl)c1 : 4.56
O=C1N=C(N2CCC[C@H]2C(=O)Nc2ccc3ncnc(Nc4cccc(Cl)c4)c3c2)S/C1=C/c1ccccc1[N+](=O)[O-] : 4.49

Entry "COc1ccccc1/C=C1/SC(N2CCC[C@H]2C(=O)Nc2ccc3ncnc(Nc4cccc(Cl)c4)c3c2)=NC1=O" : pIC50 on HepG2 = 4.66

Entry "O=C1N=C(N2CCC[C@H]2C(=O)Nc2ccc3ncnc(Nc4cccc(Cl)c4)c3c2)S/C1=C/c1ccccc1Cl" : pIC50 on HepG2 = 4.55

Entry "O=C1N=C(N2CCC[C@H]2C(=O)Nc2ccc3ncnc(Nc4cccc(Cl)c4)c3c2)S/C1=C/c1ccc(Cl)cc1" : pIC50 on HepG2 = 4.98
